test_description: Acute toxicity, LD50 mouse i.v.
run_parameters: in vivo, iv, Maus, i.v., read-out: Akute Toxizität LD50 Maus i.v.
property_measured: LD50 (mg/kg)
State just the number; it will be interpreted in mg/kg.

Briefly, LD50 measured for CC(C)(Cc1c[nH]c2ccccc12)NCC(O)COc1ccccc1C#N (stereo not shown) [Bucindolol, reference compound] : 9.6

----------
test_description: Acute toxicity, LD50 mouse i.v.
run_parameters: in vivo, iv, read-out: Akute Toxizität LD50 Maus i.v.
property_measured: LD50
Just so you know, I need the unit written after the number.

Lab note: CC(C)(Cc1c[nH]c2ccccc12)NCC(O)COc1ccsc1C(N)=O (racemic) gave LD50 of 74 mg/kg
